TARGET_OF_ASSAY: T1, Fc
T1 construct: Control antigen of the phage ELISA
EXPERIMENT: phage ELISA
OBSERVATION_TYPE: OD490
Answers are plain numbers.

Worked cases, OD490 given:
CD9 3F3 scFv monoclonal phage antibody (scFv, V domains shown, not shown: small tags and cut ends) VH: QMQLVQSGAEVKKPGASVKLSCKASGYTFSSYWMHWVRQAPGQRLEWMGEINPGNGHTNYNEKFKSRVTITVDKSASTAYMELSSLRSEDTAVYYCGQDNSPPRIWGQGTLITVSS VL: QSALTQPASVSGSPGQSITISCTGTSSDVGGYNHVSWYQQHPGKAPKLLIYDVSNRPSGVSGRFSGSKSGNTASLTISGLQAEDEANYYCGSYTSSSTFEVFGTGTKVTVL = 0.0394
CD9 12F scFv monoclonal phage antibody (scFv, V domains shown, also called 12F3) VH: QVQLVQSGAEVKKPGASVKLSCKASGYTFSSYWMHWVRQAPGQRLEWMGEINPGNGHTNYNEKFKSRVTITVDKSASTAYMELSSLRSEDTAVYYCARELEEGAFDIWGQGTMVTVSS VL: DIQMTQSPSSLPASVGDRVTITCRASQGISSYLAWYQQKPGKAPKLLIYAASTLQSGVPSRFSGSGSGTDFTLTISSLQPEDFATYYCQQYDSVPLTFGGGTKVEIK = 0.124

Here is another binder to look at.
Query: Sample CD9 11G scFv monoclonal phage antibody (scFv, V domains shown, also called 11G3) VH: QVQLVQSGAEVKKPGASVKLSCKASGYTSSSYWMHWVRQAPGQRLEWMGEINPGNGHTNYNEKFKSRVTITVDKSASTAYMELSSLRSEDTAVYYCGQDNSPPRIWGQGTLVTVSS VL: DIQMTQSPSTLSASVGDRVTITCRASQTIGNLAWFQQKPGKAPKLLIYKASSLESGVPSRFSGSGSGTEFTLTISSLQPDDFATYYCQQYSDYWTFGQGTKVEIK — what was its OD490?
Result: 0.0441

Data origin, for the record: patent US20110195027A1
